The entries below are paired with their reported Ki.
Target: Human Histamine H3 Receptor (Homo sapiens, UniProt Q9Y5N1)
Construct: membrane preparation
Sequence (Q9Y5N1 whole entry): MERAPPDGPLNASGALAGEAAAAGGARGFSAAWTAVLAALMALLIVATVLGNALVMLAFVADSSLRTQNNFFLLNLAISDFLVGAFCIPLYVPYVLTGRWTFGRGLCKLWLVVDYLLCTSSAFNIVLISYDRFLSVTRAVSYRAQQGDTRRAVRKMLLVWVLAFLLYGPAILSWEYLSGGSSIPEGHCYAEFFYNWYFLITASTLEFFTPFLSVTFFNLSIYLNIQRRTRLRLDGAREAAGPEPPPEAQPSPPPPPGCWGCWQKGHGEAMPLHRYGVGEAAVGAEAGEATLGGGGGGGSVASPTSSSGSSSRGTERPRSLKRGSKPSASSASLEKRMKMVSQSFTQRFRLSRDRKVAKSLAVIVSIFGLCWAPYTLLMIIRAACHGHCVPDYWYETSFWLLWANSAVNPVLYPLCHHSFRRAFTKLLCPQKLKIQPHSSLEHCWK
Experiment: Methyl histamine binding in human histamine H3 receptor cell line
Details: membranes of stably transfected HEK293T cells; radioligand 1 nM; Ki from IC50 by Cheng-Prusoff
Where a name gives a salt, the structure may show the parent alone.

1. O=C(NC1CCCC1)c1ccc(Oc2ccc3c(c2)CCN(C2CCN(C4CCC4)CC2)C3=O)cc1 [Example 9]	0.0101 to 0.025 µM
2. O=C(NC1CCCC1)c1ccc(COc2ccc3c(c2)CCN(C2CCN(C4CCC4)CC2)C3=O)cc1 [Example 21]	≤ 0.01 µM
3. CC(C)N1CC[C@@H](N2CCc3cc(-c4ccc(C(=O)N5CCCC5)cc4)ccc3C2=O)C1 [Example 56]	≤ 0.01 µM
4. N#Cc1ccc(-c2ccc3c(c2)CN(C2CCNCC2)C3=O)cc1 [Example 22, hydrochloride]	> 0.1 µM
5. NC(=O)c1ccc(Oc2ccc3c(c2)CCN(C2CCN(C4CCC4)CC2)C3=O)cc1 [Example 3, Hydrochloride]	0.0101 to 0.025 µM

Query block: Query (compound): CN(C)C(=O)c1ccc(Oc2ccc3c(c2)CCN(C2CCN(C4CCC4)CC2)C3=O)cc1 [Example 10] ; field requested: Ki
Result block: 0.0101 to 0.025 µM

* * *

# key: entry, value: melting point
Structures can show the parent of a compound that is named as a salt.

1) O=C(c1ccc(-c2ccc3c(c2)CCN(C2CCN(C4CCC4)CC2)C3=O)cc1)N1CCCC1 (as salt: hydrochloride) [Example 65]	> 300 °C

Query block: Recorded melting point for N#Cc1ccc(-c2ccc3c(c2)CN(C2CCNCC2)C3=O)cc1 (as salt: hydrochloride) [Example 22] , please?
Result block: 105 to 106 °C

Query block: Item under review: CN(C)C(=O)c1ccc(-c2ccc3c(c2)CCN([C@@H]2CCN(C4CCC4)C2)C3=O)c(F)c1 (as salt: hydrochloride) [Example 78] . Reported melting point?
Result block: 209 to 210 °C

Query block: Query (compound): CCNC(=O)c1ccc(-c2ccc3c(c2)CCN([C@@H]2CCN(C(C)C)C2)C3=O)c(F)c1 (as salt: hydrochloride) [Example 86] ; field requested: melting point
Result block: > 255 °C

Query block: Dear colleague, I am looking for the recorded melting point of the following compound: O=C(NC1CCC1)c1ccc(Oc2ccc3c(c2)CCN(C2CCN(C4CCC4)CC2)C3=O)cc1 (as salt: hydrochloride) [Example 8]
Result block: > 300 °C

* * *

Counter-ions that a name gives are not always drawn.
ASSAY READOUT: melting point

Query block: Suppose we examine the compound "COC(=O)c1ccc(COc2ccc3c(c2)CCN(C2CCN(C4CCC4)CC2)C3=O)cc1" ; what melting point value has been reported?
Result block: 165 to 166 °C

Query block: Query (compound): "O=C(O)c1ccc(COc2ccc3c(c2)CCN(C2CCN(C4CCC4)CC2)C3=O)cc1" ; field requested: melting point
Result block: 269 to 270 °C

Query block: Fill in the blank: the reported melting point of O=C(c1ccc(-c2ccc3c(c2)CCN([C@@H]2CCN(CC4CCCC4)C2)C3=O)cc1)N1CCCC1 (as salt: hydrochloride) is ____.
Result block: 288 to 290 °C

Query block: // lookup melting point for NC(=O)c1ccc(COc2ccc3c(c2)CCN(C2CCN(C4CCC4)CC2)C3=O)cc1 (as salt: hydrochloride)
Result block: 292 to 293 °C

Query block: So what's the measured melting point for this one? O=C(c1ccc(-c2ccc3c(c2)CCN([C@@H]2CCN(C4CCCC4)C2)C3=O)cc1)N1CCCC1 (as salt: hydrochloride)
Result block: > 200 °C

Query block: Query: melting point; subject: C[C@@H]1CCCN1C(=O)c1ccc(-c2ccc3c(c2)CCN([C@@H]2CCN(C4CCC4)C2)C3=O)c(F)c1 (as salt: hydrochloride)
Result block: 239 to 241 °C

* * *

Reported Ki is given for each of the following compounds.
Target: Human Histamine H3 Receptor (Homo sapiens, UniProt Q9Y5N1)
Construct: membrane preparation
Assay: Methyl histamine binding in human histamine H3 receptor cell line
Details: membranes of stably transfected HEK293T cells; radioligand 1 nM; Ki from IC50 by Cheng-Prusoff

Sample records with Ki:
1. CCNC(=O)c1ccc(Oc2ccc3c(c2)CCN([C@@H]2CCN(C4CCCC4)C2)C3=O)cc1 [Example 38]	10.1 to 25 nM
2. CC(C)NC(=O)c1ccc(Oc2ccc3c(c2)CCN(C2CCN(C4CCC4)CC2)C3=O)cc1 [Example 6]	10.1 to 25 nM
3. O=C(c1ccc(-c2ccc3c(c2)CCN([C@@H]2CCN(CC4CC4)C2)C3=O)cc1)N1CCCC1 [Example 58]	≤ 10 nM

Query block: Which Ki reading was recorded for the compound O=C(O)c1ccc(Oc2ccc3c(c2)CCN(C2CCN(C4CCC4)CC2)C3=O)cc1 [Example 2] ?
Result block: 50.1 to 100 nM

Query block: Item under review: CCNC(=O)c1ccc(Oc2ccc3c(c2)CCN([C@@H]2CCN(C4CCC4)C2)C3=O)cc1 [Example 34] . Reported Ki?
Result block: ≤ 10 nM

Query block: Sample O=C(c1ccc(-c2ccc3c(c2)CCN([C@@H]2CCN(Cc4cccs4)C2)C3=O)cc1)N1CCCC1 [Example 62] — what was its Ki?
Result block: 25.1 to 50 nM

Query block: Need Ki of O=C(c1ccc(Oc2ccc3c(c2)CCN([C@@H]2CCN(C4CCC4)C2)C3=O)cc1)N1CCCC1 [Example 35] , thanks.
Result block: 10.1 to 25 nM

Query block: Need Ki of O=C(c1ccc(-c2ccc3c(c2)CCN([C@@H]2CCCN(C4CCCC4)C2)C3=O)cc1)N1CCCC1 [Example 71] , thanks.
Result block: 10.1 to 25 nM

* * *

Counter-ions that a name gives are not always drawn.
We begin with a simple list: items and their reported melting point.

Query block: I am curious: what melting point value has been reported for CCNC(=O)c1ccc(COc2ccc3c(c2)CCN(C2CCN(C4CCC4)CC2)C3=O)cc1 (as salt: hydrochloride) ?
Result block: 307 to 309 °C

Query block: I have this compound here, O=C(c1ccc(-c2ccc3c(c2)CCN([C@@H]2CCN(C4CCCCC4)C2)C3=O)cc1)N1CCCC1 (as salt: hydrochloride) , and I need its recorded melting point.
Result block: 279 to 281 °C

* * *

Where a name gives a salt, the structure may show the parent alone.
ASSAY READOUT: melting point

1) O=C(c1ccc(-c2ccc3c(c2)CCN(C2CCNCC2)C3=O)cc1)N1CCCC1	> 273 °C

Query block: Can you share its melting point? I mean this molecule: CN(C)C(=O)c1ccc(COc2ccc3c(c2)CCN(C2CCN(C4CCC4)CC2)C3=O)cc1 (as salt: hydrochloride)
Result block: 292 to 294 °C

Query block: Would you kindly share the measured melting point for O=C1c2ccc(-c3ccc(F)cc3)cc2CCN1[C@@H]1CCN(C2CCC2)C1 (as salt: hydrochloride) ?
Result block: 231 to 233 °C

Query block: Which melting point value belongs to CN1CCC(N2Cc3cc(-c4ccc(C#N)cc4)ccc3C2=O)CC1 (as salt: hydrochloride) ?
Result block: 322 to 323 °C

Query block: GET /values?readout=melting point&item= "O=C(c1ccc(-c2ccc3c(c2)CCN(C2CCN(Cc4ccccc4)CC2)C3=O)cc1)N1CCCC1"
Result block: 197 to 198 °C

Query block: Requested read-out: melting point. Entry: O=C(NC1CCCC1)c1ccc2c(c1)CCN([C@@H]1CCN(C3CCC3)C1)C2=O (as salt: hydrochloride)
Result block: 124 to 125 °C

Query block: Give its melting point value. Item: O=C(NC1CC1)c1ccc(-c2ccc3c(c2)CCN([C@@H]2CCN(C4CCC4)C2)C3=O)c(F)c1 (as salt: hydrochloride)
Result block: > 200 °C

* * *

Molecular target: Human Histamine H3 Receptor (Homo sapiens, UniProt Q9Y5N1)
Construct: expressed in transfected cells; host or cells: HEK293T cells, stably transfected; membrane preparation
Assay: Methyl histamine binding in human histamine H3 receptor cell line
Conditions: membranes of stably transfected HEK293T cells; radioligand 1 nM; Ki from IC50 by Cheng-Prusoff
Protocol: Evaluation of Methyl Histamine Binding in Human Histamine H3 Receptor Cell Line The affinity of test compounds for the histamine 3 (H3) receptor is evaluated in the following manner. […] The resulting pellets are stored at −80° C. until ready for use. […] Protein concentration (ug/ul) is determined using the Micro-BCA Protein Determination. […] Non-specific binding is determined in the presence of 10 uM clobenpropit. […] The CPM per well is measured on a Packard Top Count NXT. Ki values are determined in nM. […]
Where a name gives a salt, the structure may show the parent alone.
# Ki annotations

1. N#Cc1ccc(-c2ccc3c(c2)CN(C2CCN(C4CCCC4)CC2)C3=O)cc1 [Example 29]	0.0101 to 0.025 µM
2. O=C(O)c1ccc(Oc2ccc3c(c2)CCN([C@@H]2CCN(C4CCCC4)C2)C3=O)cc1 [Example 36]	0.0501 to 0.1 µM
3. CNC(=O)c1ccc(-c2ccc3c(c2)CCN(C2CCN(C4CCC4)C2)C3=O)cc1 (stereo in doubt) [Example 90, hydrochloride]	≤ 0.01 µM
4. CCN(CC)C(=O)c1ccc(Oc2ccc3c(c2)CCN(C2CCN(C4CCC4)CC2)C3=O)cc1 [Example 11]	0.0251 to 0.05 µM
5. CN1CCC(N2Cc3cc(-c4ccc(C#N)cc4)ccc3C2=O)CC1 [Example 23, hydrochloride]	> 0.1 µM
6. C[C@H]1CCCN1C(=O)c1ccc(-c2ccc3c(c2)CCN([C@@H]2CCN(C4CCC4)C2)C3=O)c(F)c1 [Example 73]	≤ 0.01 µM

Query block: What value of Ki has been reported for the following compound? O=C(c1ccc(Oc2ccc3c(c2)CCN([C@@H]2CCN(C4CCCC4)C2)C3=O)cc1)N1CCCC1 [Example 39]
Result block: ≤ 0.01 µM

Query block: Entry O=C(c1ccc(-c2ccc3c(c2)CCN([C@@H]2CCN(C4CCCC4)C2)C3=O)cc1)N1CCCC1 [Example 43] has what Ki?
Result block: ≤ 0.01 µM

Query block: Item under review: O=C(c1ccc(-c2ccc3c(c2)CN([C@@H]2CCN(C4CCC4)C2)C3=O)cc1)N1CCCC1 [Example 92, hydrochloride] . Reported Ki?
Result block: ≤ 0.01 µM

Query block: Quick check: Ki of C[C@@H]1CCCN1C(=O)c1ccc(-c2ccc3c(c2)CCN([C@@H]2CCN(C4CCC4)C2)C3=O)c(F)c1 [Example 76] ?
Result block: ≤ 0.01 µM

Query block: Would you kindly share the measured Ki for CCNC(=O)c1ccc(-c2ccc3c(c2)CCN([C@@H]2CCN(C(C)C)C2)C3=O)c(F)c1 [Example 86] ?
Result block: ≤ 0.01 µM

Query block: # lookup: Ki of O=C(c1ccc(-c2ccc3c(c2)CCN([C@@H]2CCN(Cc4ccoc4)C2)C3=O)cc1)N1CCCC1 [Example 60]
Result block: ≤ 0.01 µM

Query block: What value of measured Ki is listed for CCN1CCC(N2Cc3cc(-c4ccc(C#N)cc4)ccc3C2=O)CC1 [Example 24] ?
Result block: > 0.1 µM

Query block: Which measured Ki value corresponds to O=C(c1ccc(-c2ccc3c(c2)CCN([C@@H]2CCN(C4CCCCC4)C2)C3=O)cc1)N1CCCC1 [Example 57] ?
Result block: ≤ 0.01 µM

Query block: Quick one: Ki for O=C(NC1CCCC1)c1ccc2c(c1)CCN([C@@H]1CCN(C3CCC3)C1)C2=O [Example 88, hydrochloride] ?
Result block: 0.0101 to 0.025 µM
